# assay.target: STAT3 (Homo sapiens)
# Sequence (P40763 whole entry, species assumed): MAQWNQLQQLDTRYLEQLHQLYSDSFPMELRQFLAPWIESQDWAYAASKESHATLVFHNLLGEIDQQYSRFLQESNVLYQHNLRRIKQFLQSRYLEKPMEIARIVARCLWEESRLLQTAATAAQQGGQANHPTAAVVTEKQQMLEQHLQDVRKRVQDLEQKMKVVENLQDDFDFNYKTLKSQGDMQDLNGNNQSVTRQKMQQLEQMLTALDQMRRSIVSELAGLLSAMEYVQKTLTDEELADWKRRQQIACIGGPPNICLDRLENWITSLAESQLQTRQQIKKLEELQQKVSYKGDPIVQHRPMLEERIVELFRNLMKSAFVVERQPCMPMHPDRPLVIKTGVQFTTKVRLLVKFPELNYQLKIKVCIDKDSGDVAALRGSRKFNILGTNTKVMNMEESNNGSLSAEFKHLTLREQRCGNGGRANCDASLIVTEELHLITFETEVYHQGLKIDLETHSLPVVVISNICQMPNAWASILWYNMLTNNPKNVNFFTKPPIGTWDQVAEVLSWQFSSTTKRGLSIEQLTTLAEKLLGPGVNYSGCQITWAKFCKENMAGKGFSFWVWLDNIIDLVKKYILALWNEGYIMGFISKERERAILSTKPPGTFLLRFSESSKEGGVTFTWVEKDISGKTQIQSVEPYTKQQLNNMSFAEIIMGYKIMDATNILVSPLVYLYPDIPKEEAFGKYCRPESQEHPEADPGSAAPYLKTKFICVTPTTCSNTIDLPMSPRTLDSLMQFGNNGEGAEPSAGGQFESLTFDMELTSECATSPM
# measurement.protocol: Competitive fluorescence polarization (FP) assay, STAT3
# Assay type: binding
# details: no reducing agent, 1 h
Would you kindly list IC50 for each of these compounds?
Answers are plain numbers, in µM.

Working through the 2 compounds below one at a time, give IC50 for each.
1. Cc1nc(/N=N/c2ccc(S(=O)(=O)O)cc2S(=O)(=O)O)c(COP(=O)(O)O)c(C=O)c1O [PPADS]
2. Cc1nc(/N=N/c2cc(S(=O)(=O)O)ccc2S(=O)(=O)O)c(COP(=O)(O)O)c(C=O)c1O [iso‐PPADS]

[22.6, 54]

###

# assay.target: STAT4 (Homo sapiens)
# Sequence (Q14765 whole entry, species assumed): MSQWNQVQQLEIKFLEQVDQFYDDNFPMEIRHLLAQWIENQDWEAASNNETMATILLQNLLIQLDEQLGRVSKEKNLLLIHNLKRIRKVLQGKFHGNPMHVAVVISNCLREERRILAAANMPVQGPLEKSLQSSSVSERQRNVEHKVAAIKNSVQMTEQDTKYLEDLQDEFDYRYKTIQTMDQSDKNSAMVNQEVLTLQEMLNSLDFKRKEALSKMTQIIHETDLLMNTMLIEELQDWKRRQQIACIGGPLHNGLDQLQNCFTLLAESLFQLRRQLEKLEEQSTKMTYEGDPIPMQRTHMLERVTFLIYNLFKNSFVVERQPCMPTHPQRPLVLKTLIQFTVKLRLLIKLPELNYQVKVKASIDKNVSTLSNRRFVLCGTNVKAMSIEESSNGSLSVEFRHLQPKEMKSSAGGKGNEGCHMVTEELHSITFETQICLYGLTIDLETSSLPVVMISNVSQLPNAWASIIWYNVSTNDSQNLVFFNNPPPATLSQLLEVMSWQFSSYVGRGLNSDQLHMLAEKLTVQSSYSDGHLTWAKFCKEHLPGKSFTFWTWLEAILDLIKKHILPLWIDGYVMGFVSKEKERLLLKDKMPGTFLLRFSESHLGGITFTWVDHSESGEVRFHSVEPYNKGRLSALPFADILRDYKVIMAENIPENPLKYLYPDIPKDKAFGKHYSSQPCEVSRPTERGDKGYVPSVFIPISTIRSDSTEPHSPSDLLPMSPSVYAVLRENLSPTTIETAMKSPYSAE
# measurement.protocol: Competitive fluorescence polarization (FP) assay, STAT4
# Type: binding
# details: IC50 STAT4 (FP assay), 1 mM DTT, 1 hr
# Description: Screening of chemical libraries […] PPADS was purchased […] from Sigma-Aldrich, and iso-PPADS from Bio-Techne. Fluorescence polarization assays Competitive fluorescence polarization (FP) assays for STAT1,[2] STAT3,[3] STAT4,[4] STAT5a,[5] STAT5b[6] and STAT6[1] were performed as previously described. […] before adding peptide and incubating for a further 1 h. FP was measured using an Infinite F500 plate reader (Tecan) and measurements were converted into percent inhibition according to […]
endpoint: IC50 (nM)
Give bare numbers, in nM.

I would be grateful if you could share the reported IC50 for Cc1nc(/N=N/c2ccc(S(=O)(=O)O)cc2S(=O)(=O)O)c(COP(=O)(O)O)c(C=O)c1O .
1700

Each recorded value in this set is attributed to paper PMC12442245.
